system: anti-mitragynine antibody; assay: Cross reactivity of the anti-mitragynine antibody against kratom alkaloids and mitragynine metabolites; format: binding, Balb/c mice; conditions: tested concentration (ng/mL): Mitragynine 50; 7-hydroxy mitragynine 35,000-40,000; Paynantheine 25,000-35,000; Speciociliatine 25,000-35,000; 16-carboxy mitragynine 300-360; 9-Hydroxycorynantheidine 3,125-4,000
Please provide measured Cross Reactivity (%) for the entries that follow.

1. CC[C@@H]1CN2CCc3c([nH]c4cccc(OC)c34)[C@@H]2C[C@@H]1/C(=C\OC)C(=O)O = 13.9-16.7%

For every item below, please supply its Cross Reactivity (%).
1. CC[C@@H]1CN2CC[C@@]3(O)C(=Nc4cccc(OC)c43)[C@@H]2C[C@@H]1/C(=C\OC)C(=O)OC [7-hydroxy mitragynine]
2. CC[C@@H]1CN2CCc3c([nH]c4cccc(OC)c34)[C@@H]2C[C@@H]1/C(=C\OC)C(=O)OC
3. CC[C@@H]1CN2CCc3c([nH]c4cccc(OC)c34)[C@H]2C[C@@H]1/C(=C\OC)C(=O)OC
4. C=C[C@H]1CN2CCc3c([nH]c4cccc(OC)c34)[C@@H]2C[C@@H]1/C(=C\OC)C(=O)OC
5. CC[C@@H]1CN2CCc3c([nH]c4cccc(O)c34)[C@@H]2C[C@@H]1/C(=C\OC)C(=O)OC [9-Hydroxycorynantheidine]

RESULT:
≤0.2%
100%
≤0.2%
≤0.2%
1.25-1.6%
